From: patent US20170212130A1

target: T1, GFP-His6 (eGFP) (Aequorea victoria, UniProt P42212 2-238 = GFP); experiment: SPR, GFP immobilized, Langmuir fit; no unit printed [continued]
T1 construct: SPR and bead assays speak only of recombinant GFP or eGFP; also called recombinant GFP; A. victoria (Av) GFP
Please note: Kd exactly at 10 nM is condition not met. Only values below 10 nM get condition met.

Determine whether this binder shows Kd lower than 10 nM (ties excluded): LaG-37 (VHH) VHH: QVQFVESGGGTVQDGDFLRLSCTASGDTFSNYHAGWFRQPPGREREFVAAISWTGEGTLYADSVKGQFTISRDNAKNAMYLQMNRLKPEDTAVYYCAAARSVGFTWRSSKSNDYAYWGQGTQVTV
condition not met

Given the entry LaG-27 (VHH) VHH: DVQLVESGGGLVQAGGSLRLSCTASGLTISTYNIGWFRQAPGKEREFVGIIIRNGDTTYYADSVKGRFTISRDNAKNTVYLQMNSVKPADAAVYSCGATVRAGAAAEQYNSYIFRGQGTQVTV , would its reported Kd be below 10 nM?
condition met

Consider LaG-29 (VHH) VHH: QVQLVESGGGLVQAGAALRLSCAASGGTFSFYNMGWFRQAPGKEREFVVSISRSGGGTAYADSVKGRFTISRDNAKNTAYLQMNSLKPEDTAVYYCAAGLRDWGREGEPHYWGQGTQVTVS . Does its Kd lie strictly below 10 nM?
condition not met

Determine if LaG-30 (VHH) VHH: QVQLVESGGGLVQAGGSLRLSCAASGRTFSTSAMGWFRQAPGREREFVAAITWTVGNTIYGDSMKGRFTISRDRTKNTVDLQMDSLKPEDTAVYYCTARSRGFVLSDLRSVDSFDYKGQGTQVTVS shows Kd strictly lower than 10 nM.
condition met

Item LaG-26 (VHH) VHH: QVQLVESGGGLVQAGASMRLSCAASGITFSLYHWVWFRQAAGREHEFVAGIIRSGGETLSADSVKDRFIISRDDAKNTLYLQMNMLQPEDTATYYCAATHRADWYSSAFREYIFRGQGTQVTVS : Kd beneath 10 nM, strictly?
condition met

For this binder, is Kd lower than 10 nM? LaG-24 (VHH) VHH: DVQLVESGGGLVQPGGSLRLSCAASGEIASIIAIGWYRQAPGKQRESVALITRSGMITYGDSAQGRFTISRDDAKNTVYLHMDDLVPEDTAVYYCNAKKVSFGDYWGQGTQVTVS
condition not met
